Origin of measurements: ChEMBL document CHEMBL4673258

Listed here: items and their measured AUClast.
ASSAY: AUClast in Beagle dog at 3 mg/kg, po administered via gavage by LC-MS/MS analysis
Type: ADME, organism-based, Canis lupus familiaris
Design: time 0 - last, route oral, dose 3 mg/kg
SETTINGS: in vivo
Param answer (str): number followed by unit.

Illustrative cases are given below, each with its answer.
{"columns": ["CHEMICAL STRING", "VALUE OBSERVED"],
 "data": [
  ["CNC(=O)c1cn(C[C@H](F)CCc2ccc(NC(=O)Cc3cc(C(F)(F)F)cc(C)n3)nn2)nn1", "23 µM·h"],
  ["CNC(=O)c1cn(C[C@H](F)CCc2ccc(NC(=O)Cc3cc(OC4CC(F)(F)C4)ccn3)nn2)nn1.Cl", "10 µM·h"],
  ["CNC(=O)c1cn(C[C@H](F)CCc2ccc(NC(=O)Cc3cc(OC4CC(F)(F)C4)cc(C)n3)nn2)nn1.Cl.Cl", "250 µM·h"]
]}

Continue with the molecule presented below.
Entry under review: CNC(=O)c1cn(C[C@H](F)CCc2ccc(NC(=O)Cc3cc(-c4cccc(OC(F)(F)F)c4)ccn3)nn2)nn1.Cl . Reported AUClast?
2.5 µM·h
